All values here come from PubChem BioAssay (NCI).

- System: HOP-92 NSCLC
- assay_info: NCI-60 one-dose screen, 48 h
- conditions: 10 µM unless noted
This is part of a sample that, as a whole, favours compounds with a hit. Of some 83,000 tested, about 20% had one in any assay. The source made the active and inactive calls. The calls were made as follows: active = growth percent below 10; inactive = the rest.
Select the correct class. Options are True for active, False for inactive and nothing else.

compound: CC12OC(CC(O)C1O)n1c3ccccc3c3c4c(c5c6ccccc6n2c5c31)C(=O)N(CCN1CCOCC1)C4=O (stereo not given)
class_name: False
//
compound: COc1ccc(/C(C)=C(\c2ccc(OCCN3CCOCC3)cc2)c2ccc(OC(=O)C3CCCCC3)cc2)cc1
class_name: False
//
compound: O=C(/C=C/c1ccccc1)c1cccs1
class_name: False
//
compound: COc1cc(-c2[nH]ncc2Nc2ccc(Cl)cc2)cc(OC)c1OC
class_name: False
//
compound: CN(Cc1ccccc1)c1nc(Cl)c(C2CC(c3ccc4c(c3)OCO4)=NN2c2cc(Cl)cc(Cl)c2)s1 (stereo not given)
class_name: False
//
compound: CCOC(=O)C(=CCC(C)C)C(=O)OCC
class_name: False

Test call for this compound, please: `C=CCN1C=CC(=O)[C@H](O[Si](C)(C)C(C)(C)C)[C@@H]1/C=C/c1ccccc1`
True

For this compound, state the assay outcome: `Cc1nn(-c2nc(-c3cc4ccccc4oc3=O)cs2)c(C)c1N=Nc1ccccc1`
False

Outcome logged for `COc1ccc(-c2nnc3n(C)c(=O)c4ccccc4n23)cc1O` in this assay:
False

Give the logged outcome of this assay for the following compound: `NCCOCCOc1ccccc1`
False

Call for entry `Cn1cc(-c2nc3c(F)cc4[nH]ncc4c3c3c2CCCC3)c(C(F)F)n1` :
True

Test call for this compound, please: `O=C(/C=C\c1ccc(Cl)c(Cl)c1)c1ccccc1`
False

###

- System: SN12C renal
- assay_info: NCI-60 one-dose screen, 48 h (100 = growth as untreated, 0 = no growth, -100 = all killed)
- conditions: 10 µM unless noted
Compounds without any hit were thinned out: in the full panel of roughly 83,000, 20% have a hit. The source made the active and inactive calls. The calls were made as follows: active = growth percent below 10; inactive = the rest.
Measured growth of individual entries

Reference set, count: 3
compound: CC(=O)N1N=C(c2ccc(Nc3nc(Nc4ccc(F)cc4)nc(Nc4ccc(F)cc4)n3)cc2)CC1c1ccccc1 (centres undefined)
growth: 112% (inactive)
//
compound: C=C(CNCCO)[C@@H]1CC[C@]2(CO)CC[C@]3(C)[C@H](CC[C@@H]4[C@@]5(C)CCC(NCCc6ccc(O)cc6)C(C)(C)[C@@H]5CC[C@]43C)[C@@H]12 (some centres undefined)
growth: -73.7% (active)
//
compound: COc1ccc2c(c1)c(C(=O)c1nc(-c3cn(C)c4ccccc34)no1)cn2C
growth: 89.5% (inactive)

Recorded growth (compound `Cc1c(CC(=O)OCCO)cc(-c2ccc(Cl)cc2)n1-c1ccccc1` ): 92.4% (inactive)

Please fill in: growth reported for `COc1cc(CNC(=O)CCCC/C=C/C(C)C)ccc1OCc1cn(-c2ccc([N+](=O)[O-])cc2)nn1` = 91.7% (inactive)

Entry `COc1cc(-c2nc3occn3c2-c2ccnc(NCCCNS(=O)(=O)c3ccc(O)cc3)n2)ccc1F` ; growth = 95.8% (inactive)

###

- Tested on: NCI/ADR-RES ovarian
- assay_info: NCI-60 one-dose screen, 48 h (100 = growth as untreated, 0 = no growth, -100 = all killed)
- conditions: 10 µM unless noted
About 83,000 compounds went through this panel and 20% of them were active in at least one assay; those are over-represented in the sample as a whole.
endpoint_label: growth (%)
Record the value in %, omitting the unit from your answer.

Solved cases (2 shown):
compound: CCCN1C(=O)/C(=c2\sc3n(c2=O)C2C(NN=3)N(CC)C(=O)N2CC)c2ccccc21 (centres undefined)
growth / %: 0.109
--
compound: Cc1ccc(NC(=O)N/C(N)=N/c2nc(=O)c3ccccc3s2)cc1
growth / %: 110

Summary line: `O=C(CCCCCCCCC(=O)N/N=C\c1ccccc1O)N/N=C\c1ccccc1O` , NCI/ADR-RES ovarian, reported growth = 14.1

Reported growth (NCI/ADR-RES ovarian) for entry `COc1cc(/C=C(/c2ccccc2)[N+](=O)[O-])c(OC)c2c1OCO2` is 10.7
